# ASSAYED_SYSTEM: T1, mSPSB2(12–224) (murine, UniProt O88838 12-224)
# T1 construct: murine SPSB2 (SSB-2), residues 12-224: lacks the first 11 residues and the C-terminal SOCS box; Uniformly 15N-labelled in one NMR experiment; also called mSPSB2ΔSB; 15N-mSPSB2(12–224); source: E. coli Origami B(DE3) pLysS, GST fusion, purified (glutathione-Sepharose, thrombin cleavage, gel filtration)
# T1 sequence (looked up): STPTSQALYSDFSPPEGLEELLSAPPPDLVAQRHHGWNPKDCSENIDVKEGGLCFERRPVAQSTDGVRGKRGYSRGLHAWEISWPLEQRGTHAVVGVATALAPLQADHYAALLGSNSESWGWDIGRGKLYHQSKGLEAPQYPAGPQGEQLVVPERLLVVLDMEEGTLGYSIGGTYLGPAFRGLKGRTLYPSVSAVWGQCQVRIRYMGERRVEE
# PROTOCOL_TEXT: ITC; 100 μM peptide titrated into 10 μM mSPSB protein; 22 °C; 20 mM Tris, 150 mM sodium chloride, 2.5 mM calcium chloride, pH 8.0; single binding site model
# TEST_PARAMETERS: both partners purified
READOUT_TYPE: Kd (µM)
Number only, in µM; omit the unit.

Please give the documented Kd of AAANELNNNLPGGA (human prostate apoptosis response protein-4 (hPar-4), residues 64-77; also called shorter wild-type hPar-4 peptide; source: synthetic peptide (GenScript Corporation)) [hPar-4(64–77)]
3.1
